B1: Caulobacter ParB omega fusion; a variant is named by its letters at X, in order, B8GW30 (parent)
chain: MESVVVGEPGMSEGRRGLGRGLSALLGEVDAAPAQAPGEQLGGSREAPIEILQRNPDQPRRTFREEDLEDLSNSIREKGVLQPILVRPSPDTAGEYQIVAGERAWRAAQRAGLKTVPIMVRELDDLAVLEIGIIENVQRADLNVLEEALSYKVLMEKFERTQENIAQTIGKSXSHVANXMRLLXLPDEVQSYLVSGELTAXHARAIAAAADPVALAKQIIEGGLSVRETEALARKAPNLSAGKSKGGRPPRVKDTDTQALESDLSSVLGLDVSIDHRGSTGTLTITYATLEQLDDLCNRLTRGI

variants of: B1; assay: one-hybrid fitness for binding parS DNA (scaled: cognate 1, non-cognate 0); higher = stronger binding; details: with parS DNA site
Whole data set: some 81,000 sequences, median “one-hybrid fitness for binding parS DNA” near -0.17, cut for the highest 2% near 0.51. Shown is part of a subset that was picked to be rich in the highest values.
reportedEndpoint: one-hybrid fitness for binding parS DNA

Prompt line: Would you mind telling me what one-hybrid fitness for binding parS DNA value was observed for RPLA ?
Response line: ≤ 0.2

Prompt line: Moving on to the next variant: WGPT
Response line: ≤ 0.2

Prompt line: Moving on to the next variant: DCQR
Response line: ≤ 0.2

Prompt line: Moving on to the next variant: NLQA
Response line: ≤ 0.2

Prompt line: Moving on to the next variant: RMLA
Response line: 0.609

Prompt line: Moving on to the next variant: RSTR
Response line: ≤ 0.2

Prompt line: Moving on to the next variant: RMFA
Response line: 0.61

Prompt line: Moving on to the next variant: WWKS
Response line: ≤ 0.2

Prompt line: Moving on to the next variant: RQMG
Response line: 0.973

Prompt line: Moving on to the next variant: MPTN
Response line: ≤ 0.2

Prompt line: Moving on to the next variant: RNGG
Response line: 0.841

Prompt line: Moving on to the next variant: RNWG
Response line: 0.651
